test: chemical genetic growth profiling, strain panel (AID 1159580);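 further: tested at 20 µM; growth read once vehicle control cultures reached saturation at 30 °C; 1 = growth at the plate median or of vehicle wells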; details: S. cerevisiae deletion strains, growth OD, locus YLR102C, strain apc9
Hit rate of the full screen: of about 5,500 compounds, about 2,000 (36%) were called active. Not shown: some 18% with an inconclusive outcome. No stated cut-off is given here; in the data, active means normalized growth mostly below about 0.91 (no sharp cut-off); inconclusive means no clear call, values can overlap the other calls; inactive means mostly above about 0.92. The list shows a part of the results.
Outcome codes: active, inactive

CC1(C)Oc2ccc3ccc(=O)oc3c2CC1O (centres undefined) :: inactive
COC(=O)[C@H]1[C@H]2C[C@H]3c4[nH]c5cc(OC)ccc5c4CCN3C[C@H]2C[C@@H](OC(=O)c2cc(OC)c(OC)c(OC)c2)[C@@H]1OC :: inactive
C[C@]12CC[C@H](O)C[C@H]1CCC1C2CC[C@]2(C)[C@@H](C3=CC(=O)OC3)[C@@H](O)C[C@]12O (some centres undefined) :: inactive
COC1C(O)C(O[C@H]2CC[C@]3(C=O)C4C(CC[C@]3(O)C2)[C@@]2(O)CC[C@H](C3=CC(=O)OC3)[C@@]2(C)C[C@H]4OC(C)=O)OC(C)C1OC(C)=O (some centres undefined) :: active
CC(=O)OC1CC[C@@]2(C)C(CCC3C2CC[C@]2(C)C(C4=CC(=O)OC4)C(OC(C)=O)CC32O)C1 (some centres undefined) :: inactive
CC(=O)O[C@@H]1c2c(ccc3ccc(=O)oc23)OC(C)(C)[C@@H]1OC(=O)CC(C)C :: inactive
CCC(=O)OCC(=O)C1(OC(=O)CC)C(C)CC2C3CCC4=CC(=O)C=CC4(C)C3(Cl)C(O)CC21C (centres undefined) :: inactive
CC[C@H]1CN2CCC1C[C@@H]2[C@@H](O)c1ccnc2ccc(OC)cc12 (some centres undefined) :: inactive
CO[C@H]1[C@H](O)[C@@H](O[C@H]2CC[C@]3(C=O)C4CC[C@]5(C)[C@@H](C6=CC(=O)OC6)CC[C@]5(O)C4CC[C@@H]3C2)O[C@@H](C)[C@@H]1O (some centres undefined) :: inactive
CCC(=O)O[C@]1(C(=O)CCl)[C@@H](C)CC2C3CCC4=CC(=O)C=C[C@]4(C)[C@@]3(F)[C@@H](O)C[C@@]21C (some centres undefined) :: inactive
NC[C@H]1O[C@H](OC2[C@@H](N)C[C@@H](N)[C@H](O[C@H]3O[C@H](CO)[C@@H](O)[C@H](N)[C@H]3O)[C@H]2O)[C@H](O)[C@@H](O)[C@@H]1O (some centres undefined) :: inactive
C/C=C(/C)C(=O)O[C@@H]1Cc2c(ccc3ccc(=O)oc23)OC1(C)C :: inactive
C[C@@H]1O[C@@H](O[C@H]2CC[C@]3(C=O)C4CC[C@]5(C)[C@@H](C6=CC(=O)OC6)CC[C@]5(O)C4CC[C@]3(O)C2)[C@H](O)[C@H](O)[C@H]1O (some centres undefined) :: inactive
CCn1nc(C(=O)O)c(=O)c2cc3c(cc21)OCO3 :: inactive

====

assay: chemical genetic growth profiling, strain panel (AID 1159580);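 further: tested at 20 µM; growth read once vehicle control cultures reached saturation at 30 °C; 1 = growth at the plate median or of vehicle wells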; details: S. cerevisiae deletion strains, growth OD, locus YGL227W, strain vid30, stronger effect = lower value
About 2,000 (36%) of roughly 5,500 compounds were called active. Not shown: some 18% with an inconclusive outcome. Some of the results follow.
Measured normalized growth by item
reported_endpoint: normalized growth

NC[C@@H]1O[C@H](O[C@@H]2[C@@H](CO)OC(O[C@@H]3[C@@H](O)[C@H](N)C[C@H](N)[C@H]3O[C@H]3O[C@H](CO)[C@@H](O)[C@H](O)[C@H]3N)[C@@H]2O)[C@H](N)[C@@H](O)[C@@H]1O (stereo partly drawn) :: 0.999
CC(C)(C)NCC(O)COc1cccc2c1CCCC2=O (stereo not drawn) :: 0.964
COc1c(O)cc2c(c1O)[C@H]1O[C@H](CO)[C@@H](O)[C@H](O)[C@@H]1OC2=O :: 1.02
N#Cc1c(Cl)cccc1Cl :: 0.974
NCC(O)CC(=O)O (stereo not drawn) :: 0.955
COc1cc(O)c2c(=O)cc(-c3ccc(OC)c(-c4c(O)cc(O)c5c(=O)cc(-c6ccc(O)cc6)oc45)c3)oc2c1 :: 1.03
CCC(=O)O[C@]1(C(=O)CCl)[C@@H](C)CC2C3CCC4=CC(=O)C=C[C@]4(C)[C@@]3(F)[C@@H](O)C[C@@]21C (stereo partly drawn) :: 1.04
NC(=O)c1ccc([N+](=O)[O-])cc1Cl :: 0.991
C[C@H]1O[C@H](O[C@H]2[C@H](O)[C@@H](O)[C@@H](O[C@H]3[C@H](O)[C@@H](O)C(O)O[C@@H]3CO)O[C@@H]2CO)[C@H](O)[C@@H](O)[C@@H]1N[C@H]1C=C(CO)[C@@H](O)[C@H](O)[C@H]1O (stereo partly drawn) :: 0.987
Cc1c(OCC(F)(F)F)ccnc1CS(=O)c1nc2ccccc2[nH]1 (stereo not drawn) :: 1.02
CC12CCC(=O)C=C1CCc1ccccc12 (stereo not drawn) :: 0.979
COC1=CC(C)[C@@H]2C[C@H]3OC(=O)C[C@H]4C(C)=C(OC)C(=O)C([C@@]34C)[C@@]2(C)C1=O (stereo partly drawn) :: 0.968
C=CCSSSCC=C :: 0.995
CO[C@H]1[C@@H](O)[C@@H](C)O[C@H](O[C@H]2CCC3(C)C4CCC5(C)[C@@H](C6=CC(=O)OC6)CC[C@]5(O)[C@@H]4CC[C@]3(O)C2)[C@@H]1O (stereo partly drawn) :: 1.01
COc1cccc2c1CCC1=CC(=O)CC[C@@]12C :: 1.01
O=c1c(-c2ccc(O)cc2)coc2c(C3O[C@H](CO)[C@@H](O)[C@H](O)[C@H]3O)c(O)ccc12 (stereo partly drawn) :: 0.982
COC(=O)C[C@H]1C(C)(C)[C@@H](O)[C@@H]2CC3=C4CC(O)O[C@@H](c5ccoc5)[C@]4(C)CCC3[C@@]1(C)C2=O (stereo partly drawn) :: 1.03
C=CCSC[C@@H](N)C(=O)O :: 0.986
O=C(O)CCc1nc(-c2ccccc2)c(-c2ccccc2)o1 :: 0.957
C=CCSCC=C :: 0.986
NC(=O)c1cc([N+](=O)[O-])cc([N+](=O)[O-])c1 :: 1.02
CC(C)=CC1C(CO)C1(C)C (stereo not drawn) :: 1.02
CCCCC(=O)O[C@]1(C(=O)CO)[C@@H](C)CC2C3CCC4=CC(=O)C=C[C@]4(C)[C@@]3(F)C(O)C[C@@]21C (stereo partly drawn) :: 0.97
C[C@@H](CO)NC(=O)C1C=C2c3cccc4[nH]cc(c34)C[C@H]2N(C)C1 (stereo partly drawn) :: 1.01
CC1=C2C(O)C(=O)OC3CC4C(C)(C)C(=O)C=C[C@]4(C)C(CC1)[C@]23C (stereo partly drawn) :: 1.01
CC(=O)O[C@@H]1c2c(ccc3ccc(=O)oc23)OC(C)(C)[C@@H]1OC(=O)CC(C)C :: 1
CCC(=O)OCC(=O)[C@@]1(OC(=O)CC)[C@@H](C)CC2C3CCC4=CC(=O)C=C[C@]4(C)C3(F)[C@@H](O)C[C@@]21C (stereo partly drawn) :: 0.995
C[C@H]1[C@H](C)CC[C@]2(C(=O)O)CC[C@]3(C)C(=CCC4[C@@]5(C)C[C@@H](O)[C@H](O)[C@@](C)(CO)C5CC[C@]43C)[C@H]12 (stereo partly drawn) :: 1.04
COc1nc(NC(C)C)nc(NC(C)C)n1 :: 1.04
CCCc1nc(C)c2c(=O)[nH]c(-c3cc(S(=O)(=O)N4CCN(CC)CC4)ccc3OCC)nn12 :: 0.965
NCCCC(O)(P(=O)(O)O)P(=O)(O)O :: 0.97
CSc1nc(NC(C)C)nc(NC(C)C)n1 :: 0.956
COc1cc(C(=O)N2CCOCC2)cc(OC)c1OC :: 0.978
CN(C)CC[C@H](c1ccc(Cl)cc1)c1ccccn1 :: 1.01
COC1CC(O[C@H]2CC[C@]3(C=O)C4CC[C@]5(C)C(C6=CC(=O)OC6)CC[C@]5(O)C4CC[C@]3(O)C2)OC(C)C1O (stereo partly drawn) :: 0.987
O=C(CCCN1CCC(O)(c2ccc(Cl)cc2)CC1)c1ccc(F)cc1 :: 1.05
CCc1ccc2c(O)c3c(cc2c1C(=O)OC)C(=O)c1c(O)ccc(O)c1C3=O :: 1
CCC(=O)OCC(=O)C1(OC(=O)CC)C(C)CC2C3CCC4=CC(=O)C=CC4(C)C3(Cl)C(O)CC21C (stereo not drawn) :: 0.983

====

Measured normalized growth by item
assay: chemical genetic growth profiling, strain panel (AID 1159580);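 further: tested at 20 µM; growth read once vehicle control cultures reached saturation at 30 °C; 1 = growth at the plate median or of vehicle wells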; details: S. cerevisiae deletion strains, growth OD, locus YGL227W, strain vid30, stronger effect = lower value
The whole screen tested about 5,500 compounds, of which about 2,000 (36%) were called active. Not shown: some 18% with an inconclusive outcome. The list shows a part of the results.
reported_endpoint: normalized growth

C[C@]12CCC3C(CC[C@]4(O)C[C@@H](O)CC[C@]34C=O)[C@@]1(O)CCC2C1=CC(=O)OC1 (stereo partly drawn) :: 0.998
COC1CC(OC2CCC3(C)C(CCC4C3CCC3(C)C(C5=CC(=O)OC5)C(OC(C)=O)CC43O)C2)OC(C)C1O (stereo not drawn) :: 1.02
Nc1ccc(S(=O)(=O)Nc2ncccn2)cc1 :: 0.995
CC1(C)O[C@@H]2CC3C4C[C@H](F)C5=CC(=O)CC[C@]5(C)C4[C@@H](O)C[C@]3(C)[C@]2(C(=O)CO)O1 (stereo partly drawn) :: 1
Oc1ccc([C@H]2Oc3cc(O)cc(O)c3C[C@H]2O)cc1 :: 0.987
COc1cc2c(cc1OC)-c1c(oc3cc(O)cc(O)c3c1=O)CO2 :: 1.03
C[C@H]1O[C@@H](O[C@H]2[C@@H](O)C[C@H](O[C@H]3[C@@H](O)C[C@H](O[C@H]4CC[C@]5(C)C6C[C@@H](O)[C@]7(C)[C@@H](C8=CC(=O)OC8)CC[C@]7(O)C6CC[C@@H]5C4)O[C@@H]3C)O[C@@H]2C)C[C@H](O)[C@@H]1O (stereo partly drawn) :: 0.99
CC1(C)[C@@H]2CC[C@@]1(C)C(=O)C2 :: 1.01
